read-out: Monocyte Chemoattractant Protein-1 (MCP1), CCL2 (gene 6347); test: BSK_SAg_MCP1: BioMAP Diversity Plus: SAg Assay for Monocyte Chemoattractant Protein-1 (MCP1) Biomarker Activity (AID 2283090); conditions: primary human HUVEC with PBMC; actives raise or lower the signal
Activity calls are given as the source filed them. Rule for the calls: active = hit-call score of the fitted dose curve at least 0.9, where 1 is the maximum; inactive = score below 0.9.
Readout Label: AC50

>  <Compound>
ClC1=C(Cl)C2(Cl)C3C(Cl)C=CC3C1(Cl)C2(Cl)Cl (configuration not stated)

>  <AC50>
31.6 µM (active)

$$$$
>  <Compound>
ClC1=C(Cl)[C@]2(Cl)[C@H]3[C@H]([C@@H]4C=C[C@H]3C4)[C@@]1(Cl)C2(Cl)Cl

>  <AC50>
31.3 µM (active)

$$$$
>  <Compound>
c1ccc2c(c1)oc1ccccc12

>  <AC50>
inactive

$$$$
>  <Compound>
CCCCCCCCn1sccc1=O

>  <AC50>
11.7 µM (active)

$$$$
>  <Compound>
c1ccc(N=Nc2ccccc2)cc1

>  <AC50>
inactive

$$$$

Kindly give each listed record's AC50.
1. CCC12COCN1COC2
2. CC(C)(C)C(O)(CCc1ccc(Cl)cc1)Cn1cncn1 (configuration not stated)

Given back:
1. inactive
2. inactive

* * *

experiment: ATG_RORE_CIS: Attagene CIS-FACTORIAL HepG2 Assay for human RAR-related Orphan Receptor Element (RORE) (AID 2282959); conditions: HepG2 Attagene cis-factorial RORE reporter, mRNA; actives raise or lower the signal
Calls of active or inactive are those of the source. How the source made its calls: active means hit-call score of the fitted dose curve at least 0.9, where 1 is the maximum; inactive means score below 0.9.
API: response.call in True (active), False (inactive)

Asked: Outcome logged for `Clc1ccc(Cl)c(Cl)c1` in this assay:
Given back: False

Asked: Per the assay record, what outcome was assigned to `OCCCl` ?
Given back: False

Asked: Write down the call the test reported for this compound. Item: CCC(C)c1ccc(O)cc1 (stereo unspecified)
Given back: False

* * *

read-out: Transforming Growth Factor (TGFA), TGFA (gene 7039); assay: LTEA_HepaRG_TGFA: Life Technologies and Expression Analysis (LTEA) Assay for Transforming Growth Factor (TGFA) using HepaRG (AID 2283532); conditions: mRNA level, 48 h; actives raise or lower the signal
Activity calls are given as the source filed them. How the source made its calls: active means hit-call score of the fitted dose curve at least 0.9, where 1 is the maximum; inactive means score below 0.9.
Entry note: the call must match one of 1.0 for active, 0.0 for inactive

>  <Compound>
O=[N+]([O-])c1ccc(Oc2ccc(Cl)cc2Cl)cc1

>  <Label Value>
0.0

$$$$

Asked: For this compound, state the assay outcome: `Clc1ccccc1Cl`
Given back: 0.0

Asked: Hi, sorry to bother you, what did the test record for `CCCSC(=O)N(CCC)CCC` ?
Given back: 0.0

Asked: Would you mind telling me which call this test gave `C=CCc1ccc2c(c1)OCO2` ?
Given back: 0.0

Asked: Any idea what this test logged for `CCCCCOC(=O)c1ccccc1C(=O)OCCCCC` ?
Given back: 0.0

Asked: Write down the call the test reported for this compound. Item: `COC(=O)Nc1nc2ccccc2[nH]1`
Given back: 0.0

Asked: Test call for this compound, please: `O=C1CCCO1`
Given back: 0.0

Asked: Per the records of this test, what outcome belongs to `Nc1ccc(N=Nc2ccccc2)cc1` ?
Given back: 0.0

Asked: Kindly provide the recorded test outcome for the following compound: `O=[N+]([O-])C(Br)(CO)CO`
Given back: 0.0

Asked: What outcome does the record of this test show for `[Cl-].[Cl-].[Hg+2]` ?
Given back: 0.0

Asked: Just curious, what result did `CCCCOC(=O)c1ccccc1C(=O)OCc1ccccc1` get here?
Given back: 0.0
